Parameter: solubility. Scope: all listed entries.
assay: physchem; conditions: aqueous buffer
Measurement Kind: solubility

> print(dat)
                               smiles.entry    test.value
1  Nc1ccc(C(=O)Nc2ccn([C@@H]3O[C@H](CO)[C@@H](O)C3(F)F)c(=O)n2)nc1  ≥ 2000 µg/mL
2  O=C(Nc1ccn([C@@H]2O[C@H](CO)[C@@H](O)C2(F)F)c(=O)n1)c1cccc(-c2ccccc2)n1   < 500 µg/mL

====

Parameter: EC90. Scope: all listed entries.
tested on: B/Lee/40; assay: CPE reduction antiviral assay in Lee-infected MDCK cells (MTT); format: cell-based, influenza B virus; settings: Influenza B virus, MDCK, 72 h, read-out: EC90 Lee
Measurement Kind: EC90 (µM)

> print(dat)
                                   molecule  measurement.kind  test.value
1  NC(=O)c1ncn([C@@H]2O[C@H](CO)[C@@H](O)[C@H]2O)n1 [Ribavirin, reference compound]              EC90         141
2  O=C(Nc1ccn([C@@H]2O[C@H](CO)[C@@H](O)C2(F)F)c(=O)n1)c1ccc([N+](=O)[O-])cn1              EC90         1.6
3  O=C(Nc1ccn([C@@H]2O[C@H](CO)[C@@H](O)C2(F)F)c(=O)n1)c1ccccc1              EC90        78.7
4  O=C(Nc1ccn([C@@H]2O[C@H](CO)[C@@H](O)C2(F)F)c(=O)n1)c1cccc(-c2ccccc2)n1              EC90        34.3

These data points were gathered from paper PMC10081574.
